Tested on: NCI-H23
Experiment: NCI tumour cell line growth inhibition, 48 h
The source made the active and inactive calls. Rule as the data show it: active = GI50 up to about 1.1 µM and inactive = higher. Where a SMILES comes first, the peptide text is derived from it.
ASSAY METRIC: GI50

[ask] Return GI50 for the following compound: CCN1C[C@]2(C)CC[C@H](OC)C34C1C([C@H](OC(C)=O)[C@@H]32)[C@@]1(OC)C[C@H](OC)[C@H]2C[C@@H]4[C@@H]1[C@H]2O
[reply] > 100 µM (inactive)

[ask] Return GI50 for the following compound: Cc1c(C(=N)N)oc2ccccc12
[reply] > 100 µM (inactive)

[ask] Return GI50 for the following compound: NNC(=O)N/N=C1\C(=O)N(c2ccc(Cl)c(Cl)c2)C(=O)C(=O)C1c1nc2ccccc2s1 (centres undefined)
[reply] > 100 µM (inactive)

[ask] Return GI50 for the following compound: CCOC(=O)NC(OCc1ccccc1)(C(=O)OC)C(F)(F)F (centres undefined)
[reply] > 100 µM (inactive)

[ask] Return GI50 for the following compound: Nc1ncc(Sc2ccccc2C(=O)O)s1
[reply] > 100 µM (inactive)

[ask] Return GI50 for the following compound: Cn1c(=O)nc2n(CCO)ccnc-2c1=O
[reply] > 100 µM (inactive)

[ask] Return GI50 for the following compound: COc1cc(CNCc2cc(OC)c(OC)c(OC)c2)cc(OC)c1OC
[reply] > 10 µM (inactive)

[ask] Return GI50 for the following compound: CCC(C)C1NC(=O)C2CCCN2C(=O)CNC(=O)C(C)NC(=O)C(Cc2ccccc2)NC(=O)C(C(C)C)NC1=O (centres undefined) (cyclo(GPIVFA); configuration not given here)
[reply] > 100 µM (inactive)

[ask] Return GI50 for the following compound: COc1cc(/C=C2\C(=O)N(c3cccc(NC(C)=O)c3)C(c3ccccc3)S2(=O)=O)cc(OC)c1OC (centres undefined)
[reply] 79.4 µM (inactive)

[ask] Return GI50 for the following compound: Cc1ccc(S(=O)(=O)C(CC(NC=O)S(=O)(=O)c2ccc(C)cc2)NC=O)cc1 (centres undefined)
[reply] > 100 µM (inactive)

[ask] Return GI50 for the following compound: O=C1Cc2cn[nH]c2-c2ccccc2N1
[reply] 29.9 µM (inactive)

[ask] Return GI50 for the following compound: Cc1c(O)c(=O)ccn1CCc1c[nH]c2ccccc12
[reply] 20.5 µM (inactive)

[ask] Return GI50 for the following compound: COC(=O)c1cc2cc(OC)c(OC)cc2cc(C(=O)OC)c1=O
[reply] > 100 µM (inactive)

[ask] Return GI50 for the following compound: CC(=O)Nc1ccc(C(=O)NN2C(=O)C(Cl)C2c2ccccc2O)cc1 (centres undefined)
[reply] 19.7 µM (inactive)

[ask] Return GI50 for the following compound: CCOC(=O)Nc1cc2ccccc2c(/N=N/c2ccccc2)c1O
[reply] > 100 µM (inactive)

[ask] Return GI50 for the following compound: CSc1c(CC(=O)Nc2ccc(Cl)cc2)n(Cc2ccccc2)c2ccccc12
[reply] 29.1 µM (inactive)

[ask] Return GI50 for the following compound: C=CC(C)C1(CCCOCc2ccccc2)C(=S)N2CCC3(CC24CCCC14)OCCO3 (centres undefined)
[reply] 6.1 µM (inactive)

[ask] Return GI50 for the following compound: Nc1ncnc2c1ncn2[C@H]1CC[C@@H](NO)C1
[reply] > 100 µM (inactive)

[ask] Return GI50 for the following compound: O=C1c2ccccc2-n2c1nc1ccccc1c2=O
[reply] 9.73 µM (inactive)

[ask] Return GI50 for the following compound: CCCCCCCCCCCCCCCCNc1nc(=O)n(C2OC(C)C(O)C2O)cc1F (centres undefined)
[reply] 18 µM (inactive)

[ask] Return GI50 for the following compound: CC(C)=CCC/C(C)=C/CC/C(C)=C/[C@@H]1[C@@H](CO)[C@]1(C)CC/C=C(\C)CCC=C(C)C
[reply] 32 µM (inactive)

[ask] Return GI50 for the following compound: Fc1cccc(F)c1C1SCc2nc3cc(Cl)c(Cl)cc3n21 (centres undefined)
[reply] > 100 µM (inactive)

[ask] Return GI50 for the following compound: COc1ccc(NC(=O)CC(=O)N2N=C(N(CCC#N)c3ccccc3Cl)CC2c2ccccc2)cc1 (centres undefined)
[reply] > 100 µM (inactive)

[ask] Return GI50 for the following compound: CC12CC(Br)(Br)C(=O)C3C1CCCC32
[reply] 6.46 µM (inactive)

[ask] Return GI50 for the following compound: COc1cc(OCc2nc3ccccc3n3cccc23)cc(OC)c1OC
[reply] 5.6 µM (inactive)

[ask] Return GI50 for the following compound: O=C1c2ccccc2-c2c1c1ccccc1c(=O)n2-c1cccnc1
[reply] 37.8 µM (inactive)

[ask] Return GI50 for the following compound: COc1cc2c([C@@H](OC(=O)c3ccccc3)c3ccc4c(c3)OCO4)nccc2c(OC)c1OC
[reply] 23.7 µM (inactive)

[ask] Return GI50 for the following compound: C=C(C)[C@@H]1CC[C@]2(C)CC[C@]3(C)[C@H](CC[C@@H]4[C@@]5(C)CC[C@H](O)C(C)(C)[C@@H]5CC[C@]43C)[C@@H]12
[reply] 61.5 µM (inactive)

[ask] Return GI50 for the following compound: O=c1[nH]nc(Cc2ccc(Cl)cc2)n1/N=C/c1ccc([N+](=O)[O-])o1
[reply] 3.34 µM (inactive)
